testSystem: RET(KD: 658-1114 G810R) (Homo sapiens, UniProt P07949, G810R)
Construct: 658-1114; expressed in transfected cells; host or cells: 293T.165 (293T cells, generated in-house)
Sequence (P07949 658-1114 G810R): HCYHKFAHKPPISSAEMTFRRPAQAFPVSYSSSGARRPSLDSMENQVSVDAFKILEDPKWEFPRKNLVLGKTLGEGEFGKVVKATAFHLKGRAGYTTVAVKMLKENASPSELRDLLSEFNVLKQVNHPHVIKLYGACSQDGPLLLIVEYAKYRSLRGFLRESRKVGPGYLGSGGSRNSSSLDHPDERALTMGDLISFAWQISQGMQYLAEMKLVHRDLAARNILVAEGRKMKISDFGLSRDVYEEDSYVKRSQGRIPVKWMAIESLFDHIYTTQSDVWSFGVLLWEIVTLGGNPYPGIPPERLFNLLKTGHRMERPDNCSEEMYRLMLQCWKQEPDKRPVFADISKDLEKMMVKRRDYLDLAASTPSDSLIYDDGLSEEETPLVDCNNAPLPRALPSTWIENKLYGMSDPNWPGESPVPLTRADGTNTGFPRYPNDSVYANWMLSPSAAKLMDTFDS
experimentDescription: HiBiT-Degradation, RET G810R degradation assay (Nano-Glo HiBiT Lytic), 293T.165 cells
Format: cell-based
appliedConditions: 6.0 hours, half-maximal degradation concentration, read-out: 293T.165 RET(KD: 658-1114 G810R) 6.0 hours (DC50)
observable: DC50

In the examples that follow, each entry is paired with its recorded DC50.
compound	DC50
CCC1(C(=O)NC(C)C)CCN(c2ccc(-c3nc(-c4cnn([C@H]5CC[C@H](N6CCC(c7ccc(N[C@@H]8CCC(=O)NC8=O)cc7F)CC6)CC5)c4)cn4ncc(C#N)c34)cn2)CC1 (single isomer, unassigned)	< 50 nM
CC(C)NC(=O)C1(C)CCN(c2ccc(-c3cc(-c4ccc(N5CCN(C(=O)CN6CCC(c7ccc(NC8CCC(=O)NC8=O)cc7F)CC6)CC5)cc4)cn4ncc(C#N)c34)cc2)CC1 (stereo not shown)	< 100 nM
CCC1(C(=O)NC(C)C)CCN(c2ccc(-c3nc(-c4cnn(C5CCN(C(=O)CN6C7CCC6CC(c6ccc(NC8CCC(=O)NC8=O)cc6F)C7)CC5)c4)cn4ncc(C#N)c34)cn2)CC1 (stereo not shown)	< 50 nM

Sure, the documented DC50 for CCC1(c2ccccn2)CCN(c2ccc(-c3nc(-c4cnn(C5CCN(C(=O)CN6CCC(c7ccc(NC8CCC(=O)NC8=O)cc7F)CC6)CC5)c4)cn4ncc(C#N)c34)cn2)CC1 (stereo not shown) is < 100 nM
